Reference source for all entries: ChEMBL document CHEMBL1129527

# system: Nucleic Acid
# protocol.text: Inhibitory activity against DNA polymerase beta
# Assay type: nucleic-acid assay
readout.type: IC50 (µM)

- compound: "CCCc1cc(=O)oc2c3c(c4c(c12)OC(C)(C)C=C4)O[C@@H](C)[C@H](C)[C@@H]3O [COSTATOLIDE]"
  IC50 [µM]: 214
- compound: "CCCc1cc(=O)oc2c3c(c4c(c12)OC(C)(C)C=C4)O[C@@H](C)C(C)[C@@H]3O (mixture of isomers)"
  IC50 [µM]: 279
- compound: "CCCc1cc(=O)oc2c3c(c4c(c12)OC(C)(C)C=C4)O[C@H](C)[C@@H](C)[C@@H]3O [CALANOLIDE A]"
  IC50 [µM]: 205
